Biological target: T1, recombinant mouse periostin (mouse, UniProt Q62009-2 24-811, limits assumed)
T1 construct: also called MoPOSTN
T1 sequence (looked up): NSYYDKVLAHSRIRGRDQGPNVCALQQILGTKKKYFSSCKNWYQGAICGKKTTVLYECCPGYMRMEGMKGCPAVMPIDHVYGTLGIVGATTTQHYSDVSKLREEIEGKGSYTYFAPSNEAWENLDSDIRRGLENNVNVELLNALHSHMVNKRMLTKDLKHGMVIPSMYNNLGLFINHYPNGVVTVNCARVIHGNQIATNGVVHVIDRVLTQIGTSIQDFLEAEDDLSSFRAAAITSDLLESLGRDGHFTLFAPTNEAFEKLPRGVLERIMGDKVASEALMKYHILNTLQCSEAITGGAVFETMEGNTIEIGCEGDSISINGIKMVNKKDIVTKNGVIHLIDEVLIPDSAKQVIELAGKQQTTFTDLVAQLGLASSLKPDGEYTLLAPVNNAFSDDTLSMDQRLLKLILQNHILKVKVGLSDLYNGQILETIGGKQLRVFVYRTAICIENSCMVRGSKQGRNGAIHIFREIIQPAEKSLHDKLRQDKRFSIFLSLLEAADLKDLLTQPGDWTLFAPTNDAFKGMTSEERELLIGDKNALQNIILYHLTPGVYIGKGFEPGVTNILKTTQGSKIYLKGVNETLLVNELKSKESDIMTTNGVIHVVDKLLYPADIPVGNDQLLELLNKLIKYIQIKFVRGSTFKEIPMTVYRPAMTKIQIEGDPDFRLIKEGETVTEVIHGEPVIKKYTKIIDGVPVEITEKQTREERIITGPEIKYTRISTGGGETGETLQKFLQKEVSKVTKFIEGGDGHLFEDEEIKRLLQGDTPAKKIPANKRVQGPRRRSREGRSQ
Assay: binding ELISA, periostin coated
READOUT: EC50 (nM)
Record the value in nM, omitting the unit from your answer.

According to the records, this binder NB0828 (antibody, V domains shown) VH: QVQLVQSGAEVKKPGASVKVSCKASGYTFTSYGISWVRQAPGQGLEWMGWISAYNGNTNYAQKLQGRVTMTTDTSTSTAYMELRSLRSDDTAVYYCARDMLVVPFDYWGQGTLVTVSS VL: QSVLTQSSSASGTPGQTVTVSCSGSSSDIGSNRVNWYQQLPGTAPKLLIYSNDQRPSGVPDRFSGSKSGTSASLAISGLQSADEADYYCAAWDDSLSTYVFGSGTKVTVL displays EC50 of 0.15

According to the records, this binder NB1003 (N55S) (antibody, V domains shown, Variant of NB0828 (IgG4PAA parent); the isotype of the variant is not restated) VH: QVQLVQSGAEVKKPGASVKVSCKASGYTFTSYGISWVRQAPGQGLEWMGWISAYSGNTNYAQKLQGRVTMTTDTSTSTAYMELRSLRSDDTAVYYCARDMLVVPFDYWGQGTLVTVSS VL: QSVLTQSSSASGTPGQTVTVSCSGSSSDIGSNRVNWYQQLPGTAPKLLIYSNDQRPSGVPDRFSGSKSGTSASLAISGLQSADEADYYCAAWDDSLSTYVFGSGTKVTVL displays EC50 of 0.08

According to the records, this binder NB1011 (N55T) (antibody, V domains shown, Variant of NB0828 (IgG4PAA parent); the isotype of the variant is not restated) VH: QVQLVQSGAEVKKPGASVKVSCKASGYTFTSYGISWVRQAPGQGLEWMGWISAYTGNTNYAQKLQGRVTMTTDTSTSTAYMELRSLRSDDTAVYYCARDMLVVPFDYWGQGTLVTVSS VL: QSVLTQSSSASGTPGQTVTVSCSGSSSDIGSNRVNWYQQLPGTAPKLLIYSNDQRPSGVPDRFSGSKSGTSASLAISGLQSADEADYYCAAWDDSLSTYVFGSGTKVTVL displays EC50 of 0.07

According to the records, this binder NB1010 (N55Q) (antibody, V domains shown, Variant of NB0828 (IgG4PAA parent); the isotype of the variant is not restated) VH: QVQLVQSGAEVKKPGASVKVSCKASGYTFTSYGISWVRQAPGQGLEWMGWISAYQGNTNYAQKLQGRVTMTTDTSTSTAYMELRSLRSDDTAVYYCARDMLVVPFDYWGQGTLVTVSS VL: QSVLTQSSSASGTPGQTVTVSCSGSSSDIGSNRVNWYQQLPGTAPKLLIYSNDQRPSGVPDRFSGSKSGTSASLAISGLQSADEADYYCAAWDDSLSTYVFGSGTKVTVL displays EC50 of 0.1

According to the records, this binder NB1012 (N55S_M100I) (antibody, V domains shown, Double mutant of NB0828 (IgG4PAA parent); the isotype of the variant is not restated) VH: QVQLVQSGAEVKKPGASVKVSCKASGYTFTSYGISWVRQAPGQGLEWMGWISAYSGNTNYAQKLQGRVTMTTDTSTSTAYMELRSLRSDDTAVYYCARDILVVPFDYWGQGTLVTVSS VL: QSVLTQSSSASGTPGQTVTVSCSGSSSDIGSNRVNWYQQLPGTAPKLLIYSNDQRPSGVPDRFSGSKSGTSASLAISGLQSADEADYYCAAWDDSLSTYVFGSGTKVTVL displays EC50 of 4.42

According to the records, this binder NB1015 (N55D) (antibody, V domains shown, Variant of NB0828 (IgG4PAA parent); the isotype of the variant is not restated) VH: QVQLVQSGAEVKKPGASVKVSCKASGYTFTSYGISWVRQAPGQGLEWMGWISAYDGNTNYAQKLQGRVTMTTDTSTSTAYMELRSLRSDDTAVYYCARDMLVVPFDYWGQGTLVTVSS VL: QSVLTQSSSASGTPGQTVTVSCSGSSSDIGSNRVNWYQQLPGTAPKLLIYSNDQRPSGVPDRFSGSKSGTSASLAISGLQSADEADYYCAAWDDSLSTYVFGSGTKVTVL displays EC50 of 0.18

According to the records, this binder NB1014 (N55T_M100V) (antibody, V domains shown, Double mutant of NB0828 (IgG4PAA parent); the isotype of the variant is not restated) VH: QVQLVQSGAEVKKPGASVKVSCKASGYTFTSYGISWVRQAPGQGLEWMGWISAYTGNTNYAQKLQGRVTMTTDTSTSTAYMELRSLRSDDTAVYYCARDVLVVPFDYWGQGTLVTVSS VL: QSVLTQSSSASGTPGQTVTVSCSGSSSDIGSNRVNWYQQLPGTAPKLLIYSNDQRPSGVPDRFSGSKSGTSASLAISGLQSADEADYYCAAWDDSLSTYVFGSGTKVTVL displays EC50 of 19.3
